tested on: CHP-126; assay: cells; type: functional, cell-based; details: Homo sapiens
Description: SANGER: Inhibition of human CHP-126 cell growth in a cell viability assay.

compound: C/C(O)=C(\C#N)C(=O)Nc1cc(Br)ccc1Br
IC50: > 16 µM
//
compound: Cc1[nH]c(/C=C2\C(=O)Nc3ccc(S(=O)(=O)Cc4c(Cl)cccc4Cl)cc32)c(C)c1C(=O)N1CCC[C@@H]1CN1CCCC1
IC50: > 2 µM
//
compound: Cc1ccc(NC(=O)c2cccc(C(C)(C)C#N)c2)cc1Nc1ccc2ncn(C)c(=O)c2c1
IC50: > 4 µM
//
compound: CCn1c(-c2nonc2N)nc2cnc(Oc3cccc(NC(=O)c4ccc(OCCN5CCOCC5)cc4)c3)cc21 [GSK-269962A]
IC50: > 2.5 µM

Cited source for all entries: ChEMBL document CHEMBL1201861
